Molecular target: GAPDH (Homo sapiens, UniProt P04406 1-335)
Sequence (P04406 whole entry): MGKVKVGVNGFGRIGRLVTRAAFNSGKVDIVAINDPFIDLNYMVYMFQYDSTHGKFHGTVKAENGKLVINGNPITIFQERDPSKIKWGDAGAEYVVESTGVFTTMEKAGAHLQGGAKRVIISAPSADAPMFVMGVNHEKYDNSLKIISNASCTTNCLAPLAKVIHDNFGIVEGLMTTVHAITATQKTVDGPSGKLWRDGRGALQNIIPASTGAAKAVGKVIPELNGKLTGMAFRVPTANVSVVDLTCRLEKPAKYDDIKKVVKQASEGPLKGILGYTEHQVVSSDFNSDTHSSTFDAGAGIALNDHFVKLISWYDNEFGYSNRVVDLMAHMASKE
Assay: EMSA; 10 mM Tris-HCl pH 8.0, 50 mM KCl, 2 mM DTT, 0.5 mM EDTA, 0.1 mg/ml BSA, 0.1 mg/ml heparin, room temperature; FP 30 min with 2 nM RNA; EMSA 20 min plus 10% glycerol and RiboLock, 6% native gel at 4°C; mass photometry without BSA/heparin
Settings: protein: recombinant; tags: N-terminal His; chain copies: 4; label: fluorescein (Roche RNA labeling mix, internal); single strand
QUANTITY KIND: pKd
Quick note: pKd means taking -log10 of the concentration in moles per liter.

[in] Reported pKd, binder GAPDH 5'UTR (ssRNA) RNA: GGGCUCUCUGCUCCUCCUGUUCGACAGUCAGCCGCAUCUUCUUUUGCGUCGCCAGCCGAGCCACAUCGCUCAGACACC : ____
[out] 6.40
